Data credit: patent US20230416238A1

Known CC50 at 144 h of a selection of molecules
- measurement notes: Cytotoxicity in PHH natural infection assay (Cell Counting Kit-8)
- Assay type: cell-based
- test conditions: HBV-infected primary human hepatocytes, CCK8

Sample records with CC50 at 144 h:
CC(C)C(=O)NC1CCC2(CC1)CCN(c1nc3cc(Cl)ccc3o1)CC2
> 100 µM
CS(=O)(=O)N1CCC(C(=O)NCC2CCN(c3nc4cc(Cl)ccc4o3)CC2)C1 (stereo not shown)
> 10 µM
NS(=O)(=O)c1ccc(C(=O)NC2CCC3(CC2)CCN(c2nc4cc(Cl)ccc4o2)CC3)o1
> 10 µM

Request: Field request: CC50 at 144 h | item: Cc1ccc(S(=O)(=O)N2CCC(C(=O)NCC3CCN(c4nc5cc(Cl)ccc5o4)CC3)CC2)cc1
Result: > 10 µM
